experiment: soluble on expression in E. coli; label from the status in PepcDB or PDB records
PROPERTY MEASURED: soluble on expression in E. coli

Take a look at these entries with their results.
- TDNFSWSTNLNFSYNDNKIKELVDDLPNGLTLTDFGGAKVILKEGGHYGDLYVRHLMRDENGKPLQNEKGEPIVSGDSMDELEYAGNMNAKVNMGWTNTFRYKDFSLSFLIDAKFGGKVISMTEAALDGWGVSKRSGEARDAGGITVDGVKFDADKYYRTTGNNNFNSPYAVENYVYDATNIRLREVTFGYTFRNLLGAGKNLTAAIIGRNLFFFHKDAPMDPDVSAGTGNGIQGVDMFALPTSRSFGLNLKLNF: not soluble
- MGSDKIHHHHHHMDNLVDVFCDVDDFCAVFMPQWKKQCVTDGTRKRQRSSRMDMSEIMTIIILFHTSHHRDFKNYYTGYLARFFKSDFPHLLSYTRFLELMPTAVVPLCSYFSSIRSLPTGIEFVDSTSVKVCHNLRIPRHKTLSGLARRGKGTMGWFYGFKLHLIVNHKGGIVAAKITPANTHDTKPVSGMVVNAMDKLYADKGYISKALASELLEQGVTLVNNVRKNMKKKVLSLWDRAMLSRRFIIETINDQLKNISQIEHSRHRSVHGFMLNMIGGLIAYQLKESKPQLNITDVDFNAISVMA: not soluble
- LIELIQYTPTTDTVRPEPILIVPAWIMKYYILDLSPENSMVKFLVDQGYTVFMISWRNPSAEDRDLGLDDYRKMGVVDAIGAVQGIVPDQKIHGVGYCLGGTLLSISAATMGRDGGDPFASLSYLASQIDFTEPGELQLFINESQLTFLEDMMWDHGYLDTTQMSGAFQMIGSADLVWSRSLHSYLMGDEPAMFDLLAWNADGTRMPYRMHSEYLRSLYLNNELTEGAFVVEGRPISVTDIRVPVFSVGTVKDHVAPWPSVYKMHLYLDTDLTFVLTSGGHN: not soluble
- MIRKNKWLRFQTVCRYIPLSLKNHNRLVIFVCQRIEWRYIFSTNTGHPLKNTCEMTGTDFSTDGLMRRYVTGGNNQWHTVASLHMTIMMNRIGTVADRQPKARKVKHGEMTLEHHHHHH: not soluble
- MISLVLGLLTSKLHYEQTYYTEIAKRARLYHNVVAQFTPFCIDSKTDLVSGLIYDTDTGKWKEQTFPIPSYIYDRYSFHEETDFEKAKSIIHSLHNRPSTTFLNNTLINLSELHDLFLTNKKLSPYIPKFEVATIQNIFKLLLKSKDIIIRPTNIHSKDNLYRVAYKNKTFHIDTVNEKYHTSLSIKRTDEFISWCKSNIRSSRYIVHTMLQPPNQLTYPLHIRTILQKNKEQTWNVIGQFIQKSSFPNQLLPSATDDDSLHSFSKIKYVLSSTGVQLLQDALHDIINEVFQTLDQSYSSLFELELSTIMDQKGAIWLMYVNTIPPYEQYIRHSDSLAEKIFHGPLKFSRFTP: not soluble

The recorded soluble on expression in E. coli for `MGLSGFHSFLCCRSRDYHLVINTLIHTVMTMDITKSVAFTGHRSERILQVRMLYLYLDIVSQVKRLYSLGYRYFLSGMAEGFDLLAAQAVTALKAEYTDIRLIAVVPFSRQSNRYRPENKSLYDRIMKTADETVILREDYRKGCFHHRNDYLIDNSEIVLAYWDKQPYGGTYYTVGKARMVNRIIINLYK` is not soluble

Looking up `MAGDPMFKKRLNKDKINDCYTWEEELPDGSYDMGFHGNLNHMEKGKSGYVTHKQLDKKLEVFKQDLLVELSEKFVTKEEFRAQGKQIKELQIEQKAQGKTLQLILEALQGINKRLDKLESKLEHHHHHH` , I found its soluble on expression in E. coli recorded as soluble

soluble on expression in E. coli for `MSLAMQDFRPGVYRHYKGDHYLALGLARADETDEVVVVYTRLYARAGLPMSTRLLRIWNETVDTGAGPQPRFAYVGHVTPEQGEGHHHHHH` is soluble

Field soluble on expression in E. coli (entry `MAFLSQLQGGFAQLKQKAEAAAPSIADSLNQLKEAPKFMESAFKTGLNKVKLDSLGKVLNVPSLGRTQSPIDIVPVITAFGEHLQNAHFEVTYESTGEFKAVNDGNSIWLMREGNSSELAISFLPEEQYHLDAVNFHWATEPMNGSEHTIGGVGYAGEMHLIHRNTRFATMADALKQPNGVIAIAVFLNESHDDNAVFSPLINLLPQVIYKGSECKLCSFDFQTFFPVAEKTKEFWMYEGSETTDPFRETVNWIVIRAALPISSHQLDKLREVRAGRYDEEFSDKVPMKPLRPIQNPSSRTIQSSFRSVAGAPDLGFRQ` ) reads not soluble

soluble on expression in E. coli for `MVLVLAEIITVGDELLTGNTVDSNSAYIAQRLTEKGFWVRRITTVGDDVKEIENAVREAISRKPEVLIISGGLGPTHDDVTMLGVANAIGRKLKLCEDCLERIKEFYEELHRKGLIDDPTLNEARKKMAYLPEGSEPLNNTEGAAPGAYVEYEGVKIFILPGMPREMKAMLESEVLPRLGERKFVQKKFLAEITDESKLAPILEDTIERFKVKIHSSPKGFGKYIGIIIFAEDDEVIGKVIRYIEGKGIKFREGW` is soluble

* * *

test: soluble on expression in E. coli; label from the status in PepcDB or PDB records
PROPERTY MEASURED: soluble on expression in E. coli

- LSIPEDYQARLQPNRVEGSYPLVRMEFTGATVDAPLMSQISRKYNIDVSILSSDLDYAGGVKFGMMVAELFGNEQDDSAAIEYLREHNVKVEVLGYVL: soluble
- MPQITLSAEVQPEQMGQRLDQTLAELFPEYSRSRLKTWIEADLVKLNDRITNIPREKVLGGERIEIIVEVEDETRFEAENIPLNIVYEDDDIIVINKPKDLVVHPGAGNPNGTVLNALLYHYPPIVEVPRAGIVHRLDKDTTGLMVVAKTIPAQTKLVRDLQKRKITREYEAVASGIMTKGGTVDQPMARHATKRTLMAVHPMGKPAVTHYRIMENYRNYTRLRLRLETGRTHQIRVHMAHIAHPLLGDQTYGGRPRPPKNASEDFMEVLRNFKRQALHAVMLRLAHPITGEMMEWYAPLPDDFVELLNALKADYLEHQDELDY: soluble

* * *

assay: soluble on expression in E. coli; label from the status in PepcDB or PDB records
PROPERTY MEASURED: soluble on expression in E. coli

Solved cases below.
- MAHHHHHHMSWRARFTPCVGSLTVWLNPKDPNCFGVRNWWRNNLPELQLLNPFCTFTIQELSFGEPHMYVNYTPTDQRMIRLAGATEEECEEIMEACITYGMNHAIIERPRTDDGGDLVNQPAITSFGYTESFTAKLEVAPPADIGQKTTEGVDDPGQKPRLYPRNVGCKLMP: not soluble
- MGSDKIHHHHHHMKKVERINTIMRYINNRSHFTISEIIREFNISRSTAIRDIREIEAMGMPLVAEVGRSGGYFVMHNSILPVVRFTDNEVKALFIAFMATRNQQLPYLKSRQSLAEKLLGLISETQQDDLVLLNQLLLFEGTNPHNPDLLELSDLPHPMLEKLIQILLLDRYLLITVKEEIKSYPIYLLHLYKEKSYWIIEGFDLKEEKKLMFPVDDLINIEPYTPKKRLHKKQILERLSKKDEAINLVFELGPKAIAQFKKYHPFKVSISYTNPYQSTAILKTFIDVHNSDEVTEMTNWLLFLGKDITIKEMPEEVLKDLQERLCLYTP: not soluble
- GSMIDKSAFVHPTAIVEEGASIGANAHIGPFCIVGPHVEIGEGTVLKSHVVVNGHTKIGRDNEIYQFASIGEVNQDLKYAGEPTRVEIGDRNRIRESVTIHRGTVQGGGLTKVGSDNLLMINAHIAHDCTVGNRCILANNATLAGHVSVDDFAIIGGMTAVHQFCIIGAHVMVGGCSGVAQDVPPYVIAQGNHATPFGVNIEGLKRRGFSREAITAIRNAYKLIYRSGKTLDEVKPEIAELAETYPEVKAFTDFFARSTRGLIR: soluble
- MPAHRSDPTSSVIELNDVVFCWPGASSPTLDIAHLQIARGEHLFVKGPSGCGKSTLLSLLTGINTATQGVVSLLGSDLSRLSASQRDRFRADHIGYIFQQFNLLPYLSVLDNVTLPCHFSALRKQQVDGPLSHKAQSLLERLHLPSALLNKPVTELSIGQQQRVAAARALMGEPQLIIADEPTSALDYDNREAFIALLREEAERVGSTLVFVSHDPTLEKLFERSVHLPTLNRAGGWQ: not soluble

Just so you know, measured soluble on expression in E. coli for `MCTFCSIINRELEGYFVYEDEKFAAILDKYPVSLGHTLVIPKKHFENYLEADEDTLAELAKVVKLVSLGIKDAVKADGLRLLTNIGRSAGQVIFHLHVHIIPTWEGDYPDIFKSFKPRKEQEKEYYELLQKIIRESIENLKRKIGDYKWG` came out at soluble

The reported value for `MGSDKIHHHHHHMISSSTVHAFYFSAKYSSFSRAAEILETTQPNISGQIIKLEKDLDTILFIRKQGRVSLSKEGEKLYLVAEKIVNSYKEFDSVVEYFFEEEPIVIVTQPRLYTKYVAPYLTDDLINNNLFHIKTGELTAIKSWLDKEDADIVITEGLFDSHSRYINEGVIDVLKFSWAKKVNEQFDSPCPTLVHSKVWDHWHDLSSALNRNKEFKRKLIIDTPDFAERLIESGVGIGLLPNVMISNNANLEVCHGPTRNNVLGPICLYSKKYSQHKNLRSLVNMFKKESSDS` in terms of soluble on expression in E. coli is not soluble
